The origin of these recorded values is patent US20250387409A1.

- TARGET_OR_TEST_SYSTEM: human GABAA-receptor subtype α3β3γ2L (Homo sapiens, UniProt P28472+P34903)
- Construct: expressed in transfected cells
- Sequence (P34903 29-492): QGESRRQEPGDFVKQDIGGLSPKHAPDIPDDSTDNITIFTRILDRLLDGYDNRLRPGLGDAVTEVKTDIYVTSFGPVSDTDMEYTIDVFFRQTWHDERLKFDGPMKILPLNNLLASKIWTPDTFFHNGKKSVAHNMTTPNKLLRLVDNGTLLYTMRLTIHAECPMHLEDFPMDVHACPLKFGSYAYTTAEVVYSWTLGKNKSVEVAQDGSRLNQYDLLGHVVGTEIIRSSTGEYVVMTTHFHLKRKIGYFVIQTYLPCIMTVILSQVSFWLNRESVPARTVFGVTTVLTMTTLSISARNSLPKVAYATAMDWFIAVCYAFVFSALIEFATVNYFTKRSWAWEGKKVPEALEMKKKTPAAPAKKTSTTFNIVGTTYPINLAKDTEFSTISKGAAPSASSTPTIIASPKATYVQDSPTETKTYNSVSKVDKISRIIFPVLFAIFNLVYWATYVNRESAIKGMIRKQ
- Sequence (P28472 26-473): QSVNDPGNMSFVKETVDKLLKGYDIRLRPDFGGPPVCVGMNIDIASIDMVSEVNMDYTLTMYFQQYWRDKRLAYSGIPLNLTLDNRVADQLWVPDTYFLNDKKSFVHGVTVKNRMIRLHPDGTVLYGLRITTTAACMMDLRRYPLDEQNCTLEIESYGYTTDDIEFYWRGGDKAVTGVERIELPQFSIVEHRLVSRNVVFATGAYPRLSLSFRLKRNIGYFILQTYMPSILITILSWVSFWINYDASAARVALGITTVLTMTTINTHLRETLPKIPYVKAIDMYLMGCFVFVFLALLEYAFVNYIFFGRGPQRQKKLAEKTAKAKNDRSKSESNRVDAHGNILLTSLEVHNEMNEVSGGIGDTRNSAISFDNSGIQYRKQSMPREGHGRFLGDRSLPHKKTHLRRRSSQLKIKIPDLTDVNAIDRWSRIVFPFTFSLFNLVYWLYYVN
- Sequence (P18507 40-475 partner): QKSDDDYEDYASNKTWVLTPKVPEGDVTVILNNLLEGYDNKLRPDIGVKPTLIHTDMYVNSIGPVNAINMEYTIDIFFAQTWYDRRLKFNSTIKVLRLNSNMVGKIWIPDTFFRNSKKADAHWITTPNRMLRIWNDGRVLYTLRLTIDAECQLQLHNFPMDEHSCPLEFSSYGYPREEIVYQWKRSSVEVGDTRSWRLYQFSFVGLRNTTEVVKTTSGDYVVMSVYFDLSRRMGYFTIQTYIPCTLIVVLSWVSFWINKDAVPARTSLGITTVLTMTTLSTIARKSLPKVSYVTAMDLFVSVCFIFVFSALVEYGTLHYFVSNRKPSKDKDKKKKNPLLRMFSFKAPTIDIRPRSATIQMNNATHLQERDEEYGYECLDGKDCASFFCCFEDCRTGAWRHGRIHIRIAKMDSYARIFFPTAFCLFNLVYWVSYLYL
- ASSAY_SUMMARY: Patch clamp (Dynaflow) THDOC enhancement of GABA response, HEK-293 cells, α3β3γ2L
- Format: cell-based
- Excerpt: In these tests the protocol was optimized to be like the physiological conditions in the synaptic cleft. Preparation of cell lines: HEK-293 cells permanently transfected with the human α1-β2-γ2L, α2-β3-γ2S, α3-ββ3-γ2L, α4-β3-δ or α5-β3-γ2L GABAA-receptor subtypes were used. The cell lines permanently expressing a functional human GABAA-receptor was made in following steps. […]
pIC50: −log10 of the molar value.
PROPERTY_LABEL: pIC50

COMPOUND	VALUE_OBSERVED
CC[C@]1(O)CC[C@@]2(C)[C@@H](CC[C@@H]3[C@@H]2CC[C@]2(C)[C@@H](C(C)=O)CC[C@@H]32)C1 [3α-ethyl-3β-hydroxy-5α-pregnan-20-one]	6.40
